Experiment: Cytotoxicity, neutral red dye uptake
Settings: human
Measured metric: CC50
Kindly report the value followed by its unit.

CC(C)(C)C(=O)OCOP(=O)(COCCn1cnc2c(N)ncnc21)OCOC(=O)C(C)(C)C [ADV, adefovir dipivoxil] | 468 µM

Let us move to another entry and its CC50.
Exercise: Find the recorded CC50 belonging to Nc1ccn([C@@H]2CS[C@H](CO)O2)c(=O)n1 [Compound 3TC, (−)2′,3′-dideoxy, 3′-thiacytidine] and report it.
Key: 2340 µM

* * *

Tested on: HBV
Test: Anti-HBV antiviral assay: extracellular HBV virion DNA by Southern blot in HepG 2.2.15 cultures
Assay type: cell-based, hepatitis B virus
Conditions: Hepatitis B virus, HepG2.2.15, Table 3; concentration giving 2-fold reduction in HBV DNA vs untreated cultures
Measured metric: EC50
Show the value, then the unit it is measured in.

Exercise: # query: EC50 of entry Nc1ccn([C@@H]2CS[C@H](CO)O2)c(=O)n1 [Compound 3TC, (−)2′,3′-dideoxy, 3′-thiacytidine]
Key: 58 nM
